A collection of molecules and their measured MCH
# Organism: Rattus norvegicus
# Protocol text: Open TG-GATES - Regimen: Single
# Assay type: toxicity, organism-based, Sprague-Dawley
# Design: regimen Single, gender Male, age 6 weeks
# Measurement conditions: in vivo, po, 1000 mg/kg, 3 h, tissue Blood, route gavage, dose level High
Response body: numeric value in pg, unit text excluded.

molecule="COc1ccc2[nH]c([S+]([O-])Cc3ncc(C)c(OC)c3C)nc2c1 (centres undefined)" unit_of_measure=pg reported_value=21.2
molecule=COC1=CC(=O)C[C@@H](C)[C@]12Oc1c(Cl)c(OC)cc(OC)c1C2=O unit_of_measure=pg reported_value=21.9
molecule=NC(N)=Nc1nc(CSCCC(N)=NS(N)(=O)=O)cs1 unit_of_measure=pg reported_value=20.8

Now for a further molecule.
IN: Request the reported MCH associated with CCOC(=O)CCC(=O)O[C@H]1[C@H](O[C@@H]2[C@@H](C)[C@H](O[C@H]3C[C@@](C)(OC)[C@@H](O)[C@H](C)O3)[C@@H](C)C(=O)O[C@H](CC)[C@@](C)(O)[C@H](O)[C@@H](C)C(=O)[C@H](C)C[C@@]2(C)O)O[C@H](C)C[C@@H]1N(C)C [ERYTHROMYCIN ETHYLSUCCINATE]
OUT: 20.5

Origin of values: ChEMBL document CHEMBL3885861
